Please provide measured Inhibitory activity on 11β-HSD 1, % CTL for the entries that follow.
Biological target: 11β-HSD 1 (Homo sapiens)
Construct: detecting cortisol generated from cortisterone by human liver microsomes; from tissue; host or cells: human liver microsomes
Sequence (P28845 whole entry): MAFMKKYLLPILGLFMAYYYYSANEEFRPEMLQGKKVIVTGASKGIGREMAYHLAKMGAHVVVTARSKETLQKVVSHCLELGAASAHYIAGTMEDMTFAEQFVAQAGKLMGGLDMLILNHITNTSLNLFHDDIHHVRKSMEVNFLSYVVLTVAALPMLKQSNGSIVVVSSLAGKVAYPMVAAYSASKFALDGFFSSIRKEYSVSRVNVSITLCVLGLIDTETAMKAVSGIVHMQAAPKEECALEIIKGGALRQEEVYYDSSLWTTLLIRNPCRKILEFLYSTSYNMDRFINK
Assay: In vitro inhibition of 11β-HSD 1, HTRF detection of cortisol generated by human liver microsomes
Format: biochemical
Details: 1 μM test compound, 100% indicates no inhibition, zero or below zero indicates complete inhibition (relative to carbenoxolone)
Numbers only, in % CTL.

Solved cases below.
{"SMILES_STR": "Cc1cc(C(=O)N2[C@@H]3CC[C@H]2C[C@@H](c2ccc(F)cc2)C3)cc(C)c1O", "EXPERIMENTAL_TARGET": "11β-HSD 1 (Homo sapiens)", "U": "% CTL", "Inhibitory activity on 11β-HSD 1, % CTL": "−29"}
{"SMILES_STR": "Cc1ccc(C(=O)N2[C@@H]3CC[C@H]2C[C@@H](c2ccc(F)cc2)C3)cc1", "EXPERIMENTAL_TARGET": "11β-HSD 1 (Homo sapiens)", "U": "% CTL", "Inhibitory activity on 11β-HSD 1, % CTL": 4}
{"SMILES_STR": "COc1cc(C(=O)N2[C@@H]3CC[C@H]2C[C@@H](c2ccc(F)cc2)C3)cc(OC)c1O", "EXPERIMENTAL_TARGET": "11β-HSD 1 (Homo sapiens)", "U": "% CTL", "Inhibitory activity on 11β-HSD 1, % CTL": 18}
{"SMILES_STR": "O=C1Cc2ccc(C(=O)N3[C@@H]4CC[C@H]3C[C@@H](c3ccc(F)cc3)C4)cc2N1", "EXPERIMENTAL_TARGET": "11β-HSD 1 (Homo sapiens)", "U": "% CTL", "Inhibitory activity on 11β-HSD 1, % CTL": 97}
{"SMILES_STR": "COc1ccc(C(=O)N2[C@@H]3CC[C@H]2C[C@@H](c2ccc(F)cc2)C3)cc1OC", "EXPERIMENTAL_TARGET": "11β-HSD 1 (Homo sapiens)", "U": "% CTL", "Inhibitory activity on 11β-HSD 1, % CTL": "−28"}

Go through the list and state Inhibitory activity on 11β-HSD 1, % CTL for each entry.
1. Cc1ccc([C@H]2C[C@H]3CC[C@@H](C2)N3C(=O)c2ccco2)cc1
2. NS(=O)(=O)c1ccc(C(=O)N2[C@@H]3CC[C@H]2C[C@@H](c2ccc(F)cc2)C3)cc1
3. O=C1NCCN1c1cccc(C(=O)N2[C@@H]3CC[C@H]2C[C@@H](c2ccc(F)cc2)C3)c1

Output line:
[93, 95, 63]

---

For each record, write down the corresponding Inhibitory activity on 11β-HSD 1, % CTL.
Target: 11β-HSD 1 (Homo sapiens)
Construct: detecting cortisol generated from cortisterone by human liver microsomes; from tissue; host or cells: human liver microsomes
Assay: In vitro inhibition of 11β-HSD 1, HTRF detection of cortisol generated by human liver microsomes
Assay type: biochemical
Conditions: 1 μM test compound, 100% indicates no inhibition, zero or below zero indicates complete inhibition (relative to carbenoxolone)
Give bare numbers, in % CTL.

{"SMILES_STR": "Cc1ccc(C(=O)N2[C@@H]3CC[C@H]2C[C@@H](c2ccc(F)cc2)C3)c(C)c1", "ENDPOINT": "Inhibitory activity on 11β-HSD 1, % CTL", "OBSERVED_VALUE": 63}
{"SMILES_STR": "Cc1cccc(C(=O)N2[C@@H]3CC[C@H]2C[C@@H](c2ccc(F)cc2)C3)c1", "ENDPOINT": "Inhibitory activity on 11β-HSD 1, % CTL", "OBSERVED_VALUE": "−39"}
{"SMILES_STR": "CC(C)(C)Oc1cccc(C(=O)N2[C@@H]3CC[C@H]2C[C@@H](c2ccc(F)cc2)C3)c1", "ENDPOINT": "Inhibitory activity on 11β-HSD 1, % CTL", "OBSERVED_VALUE": 82}

Let us move to another entry and its Inhibitory activity on 11β-HSD 1, % CTL.
Input line: Fill in the blank: the reported Inhibitory activity on 11β-HSD 1, % CTL of O=C(c1ccc2nccnc2c1)N1[C@@H]2CC[C@H]1C[C@@H](c1ccc(F)cc1)C2 is ____.
Output line: 19
